Experiment: Cytotoxicity against MDCK cells by MTT assay
Assay type: cell-based, Canis lupus familiaris
Details: dog
CC50 at 336 h values by entry
Please make sure the unit comes right after the number.

Worked cases, answers included:
Compound	Result type	Result
CC12C=CC3(CN(c4ccccc4)C(=O)C3C1C(=O)N/N=C1\CC3CCC1C3)O2 (mixture of isomers)	CC50 at 336 h	269 µM
CC(C)N1CC23C=CC(C)(O2)C(C(=O)N/N=C2\C[C@H]4CC[C@]2(C)C4(C)C)C3C1=O (mixture of isomers)	CC50 at 336 h	250 µM
CC12C=CC3(CN(c4ccccc4)C(=O)C3C1C(=O)N/N=C1\C(C)(C)[C@H]3CC[C@]1(C)C3)O2 (mixture of isomers)	CC50 at 336 h	1060 µM
CC1(C)[C@@H]2CC[C@@]1(C)/C(=N/NC(=O)C1C3OC4(CN(c5ccccc5)C(=O)C14)C1OC31)C2 (mixture of isomers)	CC50 at 336 h	195 µM
COc1ccc(N2CC34C=CC(C)(O3)C(C(=O)N/N=C3\C(C)(C)[C@H]5CC[C@]3(C)C5)C4C2=O)cc1 (mixture of isomers)	CC50 at 336 h	292 µM
NC(=O)c1ncn([C@@H]2O[C@H](CO)[C@@H](O)[C@H]2O)n1	CC50 at 336 h	20 µM
CSc1nc2[nH]nc([N+](=O)[O-])c(=O)n2n1	CC50 at 336 h	368 µM
CC12C=CC3(CN(c4ccccc4)C(=O)C3C1C(=O)N/N=C1\C[C@H]3CC[C@]1(C)C3(C)C)O2 (mixture of isomers)	CC50 at 336 h	142 µM

// lookup CC50 at 336 h for COc1ccc(N2CC34C=CC(C)(O3)C(C(=O)N/N=C3\C[C@H]5CC[C@]3(C)C5(C)C)C4C2=O)cc1 (mixture of isomers)
120 µM

// lookup CC50 at 336 h for CC12C=CC3(CN(Cc4ccccc4)C(=O)C3C1C(=O)N/N=C1\C[C@H]3CC[C@]1(C)C3(C)C)O2 (mixture of isomers)
245 µM

// lookup CC50 at 336 h for COCCN1CC23C=CC(O2)C(C(=O)N/N=C2\C[C@H]4CC[C@]2(C)C4(C)C)C3C1=O (mixture of isomers)
250 µM

----------
Assay: Cytotoxicity against MDCK cells by MTT assay
Format: cell-based, Canis lupus familiaris
Conditions: dog
CC50 at 336 h values by entry
# output: bare number, implied unit µM

Compound	Result type	Result
CC12C=CC3(CN(CCc4ccccc4)C(=O)C3C1C(=O)N/N=C1\C[C@H]3CC[C@]1(C)C3(C)C)O2 (mixture of isomers)	CC50 at 336 h	195
CC1(C)[C@@H]2CC[C@@]1(C)/C(=N/NC(=O)C1C3C=CC4(CN(Cc5ccccc5)C(=O)C14)O3)C2 (mixture of isomers)	CC50 at 336 h	250
CCC12C=CC3(CN(c4ccccc4)C(=O)C3C1C(=O)N/N=C1\C(C)(C)[C@H]3CC[C@]1(C)C3)O2 (mixture of isomers)	CC50 at 336 h	120
CCN1CC23C=CC(O2)C(C(=O)N/N=C2\C[C@H]4CC[C@]2(C)C4(C)C)C3C1=O (mixture of isomers)	CC50 at 336 h	250

// lookup CC50 at 336 h for CCCCN1CC23C=CC(C)(O2)C(C(=O)N/N=C2\C[C@H]4CC[C@]2(C)C4(C)C)C3C1=O (mixture of isomers)
246

----------
Assay: Selective index, ratio of CC50 for HEK293T cells to IC50 for antiviral activity against pseudotyped recombinant vesicular stomatitis virus delta G Gn-Gc infected HEK293T cells
Type: toxicity
Settings: human, read-out: Ratio CC50/IC50
Result type: selectivity ratio
No unit in the answer, only the number.

Molecule	Result
CC1(C)[C@@H]2CC[C@@]1(C)/C(=N/NC(=O)C1C3OC4(CN(c5ccccc5)C(=O)C14)C1OC31)C2 (mixture of isomers)	5
CC12C=CC3(CN(CCc4ccccc4)C(=O)C3C1C(=O)N/N=C1\C[C@H]3CC[C@]1(C)C3(C)C)O2 (mixture of isomers)	3
CSc1nc2[nH]nc([N+](=O)[O-])c(=O)n2n1	4

// lookup selectivity ratio for COc1ccc(N2CC34C=CC(C)(O3)C(C(=O)N/N=C3\C(C)(C)[C@H]5CC[C@]3(C)C5)C4C2=O)cc1 (mixture of isomers)
2

// lookup selectivity ratio for CC12CCC3(CN(c4ccccc4)C(=O)C3C1C(=O)N/N=C1\C[C@H]3CC[C@]1(C)C3(C)C)O2 (mixture of isomers)
3

// lookup selectivity ratio for CC12C=CC3(CN(Cc4ccccc4)C(=O)C3C1C(=O)N/N=C1\C[C@H]3CC[C@]1(C)C3(C)C)O2 (mixture of isomers)
2

// lookup selectivity ratio for CC12C=CC3(CN(c4ccccc4)C(=O)C3C1C(=O)N/N=C1\C(C)(C)[C@H]3CC[C@]1(C)C3)O2 (mixture of isomers)
3

// lookup selectivity ratio for CC(C)N1CC23C=CC(C)(O2)C(C(=O)N/N=C2\C[C@H]4CC[C@]2(C)C4(C)C)C3C1=O (mixture of isomers)
5

// lookup selectivity ratio for CC12C=CC3(CN(c4ccccc4)C(=O)C3C1C(=O)N/N=C1\C[C@H]3CC[C@]1(C)C3(C)C)O2 (mixture of isomers)
4

----------
Tested on: Orthohantavirus hantanense
Experiment: Antiviral activity against HTNV strain 76-118 infected african green monkey Vero E6 cells measured after 3 days by plaque-formation assay
Assay type: functional, organism-based
Details: 76-118, Vero C1008, 72 h
Result type: EC50 (µM)
# output: bare number, implied unit µM

// lookup EC50 for O=c1c2ncn([C@@H]3O[C@H](CO)[C@@H](O)[C@H]3O)c2ncn1-c1cccc(F)c1
94

----------
selectivity ratio values by entry
Experiment: Selective index, ratio of CC50 for MDCK cells to IC50 for Hantaan 76-118
Type: toxicity
Settings: dog, read-out: Ratio CC50/IC50
No unit in the answer, only the number.

Worked cases, answers included:
Compound	selectivity ratio
CC12C=CC3(CN(Cc4ccccc4)C(=O)C3C1C(=O)N/N=C1\C[C@H]3CC[C@]1(C)C3(C)C)O2 (mixture of isomers)	7
CC12C=CC3(CN(c4ccccc4)C(=O)C3C1C(=O)N/N=C1\CC3CCC1C3)O2 (mixture of isomers)	9
COc1ccc(N2CC34C=CC(C)(O3)C(C(=O)N/N=C3\C[C@H]5CC[C@]3(C)C5(C)C)C4C2=O)cc1 (mixture of isomers)	6
CC12C=CC3(CN(CCc4ccccc4)C(=O)C3C1C(=O)N/N=C1\C[C@H]3CC[C@]1(C)C3(C)C)O2 (mixture of isomers)	4
CC12C=CC3(CN(c4ccccc4)C(=O)C3C1C(=O)N/N=C1\C(C)(C)[C@H]3CC[C@]1(C)C3)O2 (mixture of isomers)	140
CSc1nc2[nH]nc([N+](=O)[O-])c(=O)n2n1	26

// lookup selectivity ratio for CC12C=CC3(CN(c4ccccc4)C(=O)C3C1C(=O)N/N=C1\C[C@H]3CC[C@]1(C)C3(C)C)O2 (mixture of isomers)
10
